B1: RAD51 (parent)
chain: APKKELINIKGISEAKADKILAEA

variants of: B1; assay: protein stability index of a GFP-peptide fusion (GPS, HEK-293T) (PSI 1-6); higher = more stable; conditions: c terminus: a fixed tail appended;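 further: lentivirally expressed fusions sorted by FACS into six bins by GFP to DsRed ratio, PSI derived from sequencing read proportions per bin multiplied by bin number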
outcome.measure: protein stability index

| mutation.annotation | outcome.measure | reported.value |
| --- | --- | --- |
| A1K | protein stability index | 4.84 |
| P2C | protein stability index | 4.5 |
| G11D | protein stability index | 4.9 |
| D18F | protein stability index | 2.59 |
| A17S | protein stability index | 5 |
| I12C | protein stability index | 4.96 |
| G11P | protein stability index | 4.93 |
| N8S | protein stability index | 4.32 |
| K16G | protein stability index | 5.01 |
| E14R | protein stability index | 4.05 |
| A24V | protein stability index | 4.26 |
| K4L | protein stability index | 4.19 |
| A22I | protein stability index | 4.25 |
| K16V | protein stability index | 3.98 |
| P2A | protein stability index | 4.93 |
| E23A | protein stability index | 4.18 |
| A1Q | protein stability index | 4.55 |
| K19G | protein stability index | 4.93 |
| L21D | protein stability index | 5.58 |
| K19W | protein stability index | 3.48 |
| E23N | protein stability index | 4.58 |
| E14G | protein stability index | 4.8 |
| E23H | protein stability index | 3.85 |
| K19Y | protein stability index | 4.61 |
| K16M | protein stability index | 3.59 |
| K3P | protein stability index | 4.83 |
| K10V | protein stability index | 4.38 |
| S13I | protein stability index | 3.86 |
| I20A | protein stability index | 5.03 |
| I9V | protein stability index | 5.1 |
| G11N | protein stability index | 4.62 |
| I12Y | protein stability index | 4.13 |
| L21M | protein stability index | 4.98 |
| A22T | protein stability index | 3.9 |
| S13W | protein stability index | 4.12 |
| P2L | protein stability index | 3.97 |
| K4W | protein stability index | 3.98 |
| G11W | protein stability index | 3.4 |
| E23D | protein stability index | 4.96 |
| A1V | protein stability index | 4.08 |
